The entries below come with measured growth inhibition values attached.
- TEST METHOD NOTES: NCI Yeast Anticancer Drug Screen. Data for the mec2-1 strain (AID 157)
- ASSAY CONDITIONS: S. cerevisiae mec2-1 strain, at 5.0 µM (retest, dose inferred, filed as 0.5), active compounds read high
This is part of a sample that, as a whole, favours compounds with a hit. Of some 79,000 tested, about 15% had one in any assay.
Give the value in % but do not write % after it.

Looking up CNC(=S)/N=c1/sc([N+](=O)[O-])c(C)n1C , I see its growth inhibition listed as -6

Value of measured growth inhibition for the entry O=C1C=CC(=O)C2C3C=CC(CC3)C12 (stereo not drawn) : 20

The value of growth inhibition measured for the compound O=C(O)CSc1ccc(N=C=S)cc1 turned out to be 3

growth inhibition reported for this compound O=[N+]([O-])c1ccc(S(=O)/N=C/c2ccccc2)c([N+](=O)[O-])c1 (stereo not drawn) : -4

In plain terms, CC1=C(c2ccccc2)C(=O)OC1=O has a documented growth inhibition of 2

Quick note, growth inhibition for Cc1nc(N)sc1N=Nc1ccccc1Br landed at -11

Notebook: Cc1nc(Cl)nc(N)c1[N+](=O)[O-] , growth inhibition read as 8

Entry CC(C)c1ccc(C2C3=C(N=C4SCC(=O)N42)C(=O)c2ccccc23)cc1 (stereo not drawn) ; growth inhibition = -20

# growth inhibition (compound: CC(C)NC(=O)OCc1c2c(n(C)c1COC(=O)NC(C)C)-c1ccccc1CC2 ) is 14
